- tgt: UniProt Q9UKE5
- protocol.summary: Surface plasmon resonance, binding of thiopeptides to immobilized biotinylated TNIK (single-cycle, then multicycle kinetics)
- Parameters: Biotinylated TNIK (kinase domain, amino acids 1-314;); biotin (biotinylated protein); purchased Carna Biosciences (Kobe, Japan)
- experimental.parameters: SPR kinetic data, binding to immobilized TNIK
Numbered stars: 1 amine (or outer) side, 2 acyl side, 3 side chain; on linkers, the order of the positions; unused ones are H or OH. Bridge positions count the residues as written; N and C are the ends. Square brackets hold non-standard residues; d marks the D form. Peptide text beside a SMILES is read from it. X1 = C=C(N[*:2])c1nc(-c2nc(-c3nc(C(=O)OC)cs3)ccc2C(=O)[*:1])cs1; NMePhe(4-NO2) = CN[C@@H](Cc1ccc([N+](=O)[O-])cc1)C(=O)O; Tic(7-OH) = O=C(O)[C@@H]1Cc2ccc(O)cc2CN1; X2 = O=C(c1csc([C@H](CO)N[*:1])n1)[*:2]; Aad = N[C@@H](CCCC(=O)O)C(=O)O; NMeA = CN[C@@H](C)C(=O)O; Dhb = C/C=C(\N)C(=O)O; Dha = C=C(N)C(=O)O; Sar = CNCC(=O)O
In this section, each of the compounds is paired with its reported kon.
Give the value, in units of M⁻¹ s⁻¹, as a plain number.

Solved cases below.
compound: C=C1NC(=O)[C@H](C)N(C)C(=O)[C@H](CCCNC(=N)N)NC(=O)CN(C)C(=O)/C(=C/C)NC(=O)[C@H](CCCNC(=N)N)NC(=O)[C@H](CC(C)C)NC(=O)[C@H](Cc2c[nH]c3ccccc23)NC(=O)[C@H](Cc2c[nH]c3ccccc23)NC(=O)c2ccc(-c3nc(C(=O)OC)cs3)nc2-c2csc(n2)C(=C)NC(=O)CNC(=O)/C(=C/C)NC(=O)[C@H](Cc2ccc([N+](=O)[O-])cc2)N(C)C(=O)[C@H]([C@@H](C)O)NC1=O [hTP8] (WWLR[Dhb][Sar]R[NMeA][Dha]T[NMePhe(4-NO2)][Dhb]G; linker N-C via X1)
property.label: kon
observed.value: 1.21e+06
//
compound: C=C1NC(=O)[C@H](CC(C)C)NC(=O)[C@H](CC(N)=O)NC(=O)[C@H](CO)NC(=O)[C@H](CCCNC(=N)N)NC(=O)[C@H](CCCNC(=N)N)NC(=O)CN(C)C(=O)[C@H](C)N(C)C(=O)[C@H](CC(C)C)NC(=O)[C@H](CCCNC(=N)N)NC(=O)[C@@H]2CCCN2C(=O)[C@@H]2Cc3ccc(O)cc3CN2C(=O)[C@H]([C@@H](C)O)NC(=O)[C@H](Cc2c[nH]c3ccccc23)NC(=O)c2ccc(-c3nc(C(=O)OC)cs3)nc2-c2csc1n2 [hTP15] (WT[Tic(7-OH)]PRL[NMeA][Sar]RRSNL; linker N-C via X1)
property.label: kon
observed.value: 4.78e+06
//
compound: C=C1NC(=O)CN(C)C(=O)[C@H](CC(N)=O)NC(=O)c2csc(n2)[C@H](CO)NC(=O)[C@H](Cc2c[nH]c3ccccc23)NC(=O)[C@H](Cc2c[nH]c3ccccc23)NC(=O)c2ccc(-c3nc(C(=O)OC)cs3)nc2-c2csc(n2)C(=C)NC(=O)[C@H](C)NC(=O)/C(=C/C)NC(=O)[C@@H]2Cc3ccc(O)cc3CN2C(=O)[C@H](Cc2ccc([N+](=O)[O-])cc2)N(C)C(=O)CN(C)C(=O)C(=C)NC1=O [wTP12] (WW[X2]N[Sar][Dha][Dha][Sar][NMePhe(4-NO2)][Tic(7-OH)][Dhb]A; linker N-C via X1)
property.label: kon
observed.value: 308000

Could you now look at the following compound, please?
Recorded kon of C=C1NC(=O)[C@@H]2Cc3ccc(O)cc3CN2C(=O)[C@H](CCCNC(=N)N)NC(=O)[C@H](CC(C)C)NC(=O)[C@H](Cc2ccc([N+](=O)[O-])cc2)N(C)C(=O)[C@H](CC(N)=O)NC(=O)[C@H](CC(C)C)NC(=O)[C@H](CCCNC(=N)N)NC(=O)[C@H](CCCC(N)=O)NC(=O)[C@H](C)NC(=O)[C@H](Cc2c[nH]c3ccccc23)NC(=O)c2ccc(-c3nc(C(=O)OC)cs3)nc2-c2csc(n2)C(=C)NC(=O)CNC1=O [hTP13] (WA[Aad](NH2)RLN[NMePhe(4-NO2)]LR[Tic(7-OH)][Dha]G; linker N-C via X1) , please. 648000

###

- protocol.summary: Serum stability assay (LC/MS against internal standard)
- experimental.parameters: human, human serum diluted in TBS, pH 7.6
Numbered stars: 1 amine (or outer) side, 2 acyl side, 3 side chain; on linkers, the order of the positions; unused ones are H or OH. Bridge positions count the residues as written; N and C are the ends. Square brackets hold non-standard residues; d marks the D form. Peptide text beside a SMILES is read from it. X1 = C=C(N[*:2])c1nc(-c2nc(-c3nc(C(=O)OC)cs3)ccc2C(=O)[*:1])cs1; NMePhe(4-NO2) = CN[C@@H](Cc1ccc([N+](=O)[O-])cc1)C(=O)O; LeuThz(4-CO) = CC(C)C[C@H](N[*:1])c1nc(C(=O)[*:2])cs1; Dha = C=C(N)C(=O)O; Sar = CNCC(=O)O
property.label: half-life at 10 µM (h)
Respond numerically; units are h and should not be typed.

Endpoint output: half-life at 10 µM of C=C1NC(=O)[C@H](Cc2ccc([N+](=O)[O-])cc2)N(C)C(=O)CN(C)C(=O)CNC(=O)[C@H](Cc2c[nH]c3ccccc23)NC(=O)c2ccc(-c3nc(C(=O)OC)cs3)nc2-c2csc(n2)C(=C)NC(=O)c2csc(n2)[C@H](CC(C)C)NC(=O)[C@H](CO)NC(=O)[C@H](CCCNC(=N)N)NC(=O)[C@H](CC(N)=O)NC(=O)CN(C)C(=O)[C@H](CC(C)C)NC(=O)[C@H](CC(N)=O)NC1=O [hTP6] (WG[Sar][NMePhe(4-NO2)][Dha]NL[Sar]NRS[LeuThz(4-CO)]; linker N-C via X1) . Value? 3.6

###

- tgt: TNIK (Homo sapiens, UniProt Q9UKE5)
- Sequence (Q9UKE5 1-314): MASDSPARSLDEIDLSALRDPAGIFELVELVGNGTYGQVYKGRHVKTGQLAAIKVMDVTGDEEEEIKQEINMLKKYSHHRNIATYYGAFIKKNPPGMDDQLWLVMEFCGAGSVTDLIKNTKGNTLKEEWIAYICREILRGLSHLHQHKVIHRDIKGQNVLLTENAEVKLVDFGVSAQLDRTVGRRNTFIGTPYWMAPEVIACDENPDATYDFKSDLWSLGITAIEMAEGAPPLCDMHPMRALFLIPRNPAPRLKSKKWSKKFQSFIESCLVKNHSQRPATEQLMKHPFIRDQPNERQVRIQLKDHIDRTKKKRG
- protocol.summary: Surface plasmon resonance, binding of thiopeptides to immobilized biotinylated TNIK (single-cycle, then multicycle kinetics)
- Parameters: Biotinylated TNIK (kinase domain, amino acids 1-314;); biotin (biotinylated protein); purchased Carna Biosciences (Kobe, Japan)
- experimental.parameters: SPR kinetic data, binding to immobilized TNIK
Numbered stars: 1 amine (or outer) side, 2 acyl side, 3 side chain; on linkers, the order of the positions; unused ones are H or OH. Bridge positions count the residues as written; N and C are the ends. Square brackets hold non-standard residues; d marks the D form. Peptide text beside a SMILES is read from it. X1 = C=C(N[*:2])c1nc(-c2nc(-c3nc(C(=O)OC)cs3)ccc2C(=O)[*:1])cs1; Tic(7-OH) = O=C(O)[C@@H]1Cc2ccc(O)cc2CN1; NMeA = CN[C@@H](C)C(=O)O; Sar = CNCC(=O)O
property.label: koff

Please look up its koff: C=C1NC(=O)[C@H](CC(C)C)NC(=O)[C@H](CC(N)=O)NC(=O)[C@H](CO)NC(=O)[C@H](CCCNC(=N)N)NC(=O)[C@H](CCCNC(=N)N)NC(=O)CN(C)C(=O)[C@H](C)N(C)C(=O)[C@H](CC(C)C)NC(=O)[C@H](CCCNC(=N)N)NC(=O)[C@@H]2CCCN2C(=O)[C@@H]2Cc3ccc(O)cc3CN2C(=O)[C@H]([C@@H](C)O)NC(=O)[C@H](Cc2c[nH]c3ccccc23)NC(=O)c2ccc(-c3nc(C(=O)OC)cs3)nc2-c2csc1n2 [hTP15] (WT[Tic(7-OH)]PRL[NMeA][Sar]RRSNL; linker N-C via X1) 0.0216 s⁻¹

###

- tgt: TNIK (Homo sapiens, UniProt Q9UKE5)
- protocol.summary: ADP-Glo kinase inhibition assay
- Format: biochemical
- Set-up: Biotinylated TNIK (kinase domain, amino acids 1-314;); biotin (biotinylated protein); purchased Carna Biosciences (Kobe, Japan)
- experimental.parameters: 0.5 nM TNIK, 25 µM ATP, 15 µM MSTtide; 4-parameter logistic fit; read-out: ADP-Glo IC50 against TNIK
Numbered stars: 1 amine (or outer) side, 2 acyl side, 3 side chain; on linkers, the order of the positions; unused ones are H or OH. Bridge positions count the residues as written; N and C are the ends. Square brackets hold non-standard residues; d marks the D form. Peptide text beside a SMILES is read from it. X1 = C=C(N[*:2])c1nc(-c2nc(-c3nc(C(=O)OC)cs3)ccc2C(=O)[*:1])cs1; NMePhe(4-NO2) = CN[C@@H](Cc1ccc([N+](=O)[O-])cc1)C(=O)O; LeuThz(4-CO) = CC(C)C[C@H](N[*:1])c1nc(C(=O)[*:2])cs1; Tic(7-OH) = O=C(O)[C@@H]1Cc2ccc(O)cc2CN1; X3 = C/C=C(\N[*:1])c1nc(C(=O)[*:2])cs1; Aad = N[C@@H](CCCC(=O)O)C(=O)O; NMeA = CN[C@@H](C)C(=O)O; Dhb = C/C=C(\N)C(=O)O; Dha = C=C(N)C(=O)O; Sar = CNCC(=O)O
Exam item: assign met to entries whose IC50 is below 200 nM and not met to entries at or above 200 nM. Note that a value of exactly 200 nM receives not met.

compound: C=C1NC(=O)[C@H](Cc2ccc([N+](=O)[O-])cc2)N(C)C(=O)CN(C)C(=O)CNC(=O)[C@H](Cc2c[nH]c3ccccc23)NC(=O)c2ccc(-c3nc(C(=O)OC)cs3)nc2-c2csc(n2)C(=C)NC(=O)c2csc(n2)[C@H](CC(C)C)NC(=O)[C@H](CO)NC(=O)[C@H](CCCNC(=N)N)NC(=O)[C@H](CC(N)=O)NC(=O)CN(C)C(=O)[C@H](CC(C)C)NC(=O)[C@H](CC(N)=O)NC1=O [hTP6] (WG[Sar][NMePhe(4-NO2)][Dha]NL[Sar]NRS[LeuThz(4-CO)]; linker N-C via X1)
category.label: not met

State whether 200 nM exceeds IC50 recorded for C=C1NC(=O)[C@H](CC(C)C)NC(=O)[C@H](CC(N)=O)NC(=O)[C@H](CO)NC(=O)[C@H](CCCNC(=N)N)NC(=O)[C@H](CCCNC(=N)N)NC(=O)CN(C)C(=O)[C@H](C)N(C)C(=O)[C@H](CC(C)C)NC(=O)[C@H](CCCNC(=N)N)NC(=O)[C@@H]2CCCN2C(=O)[C@@H]2Cc3ccc(O)cc3CN2C(=O)[C@H]([C@@H](C)O)NC(=O)[C@H](Cc2c[nH]c3ccccc23)NC(=O)c2ccc(-c3nc(C(=O)OC)cs3)nc2-c2csc1n2 [hTP15] (WT[Tic(7-OH)]PRL[NMeA][Sar]RRSNL; linker N-C via X1) . met

IC50 strictly < 200 nM for this compound? C=C1NC(=O)CN(C)C(=O)/C(=C/C)NC(=O)C(=C)NC(=O)[C@@H]2Cc3ccc(O)cc3CN2C(=O)[C@@H]2CCCN2C(=O)[C@H](CC(C)C)NC(=O)[C@H](Cc2c[nH]c3ccccc23)NC(=O)[C@H](Cc2c[nH]c3ccccc23)NC(=O)c2ccc(-c3nc(C(=O)OC)cs3)nc2-c2csc(n2)C(=C)NC(=O)c2csc(n2)/C(=C/C)NC(=O)/C(=C/C)NC1=O [hTP4] (WWLP[Tic(7-OH)][Dha][Dhb][Sar][Dha][Dhb][X3]; linker N-C via X1) not met

Strictly below 200 nM in IC50? C=C1NC(=O)[C@@H]2Cc3ccc(O)cc3CN2C(=O)CN(C)C(=O)/C(=C/C)NC(=O)CN(C)C(=O)[C@H](CCCC(N)=O)NC(=O)[C@H](Cc2c[nH]c3ccccc23)NC(=O)[C@H](Cc2c[nH]c3ccccc23)NC(=O)c2ccc(-c3nc(C(=O)OC)cs3)nc2-c2csc(n2)C(=C)NC(=O)CNC(=O)/C(=C/C)NC(=O)[C@H](Cc2ccc([N+](=O)[O-])cc2)N(C)C(=O)[C@H]([C@@H](C)O)NC(=O)C(=C)NC1=O [wTP4] (WW[Aad](NH2)[Sar][Dhb][Sar][Tic(7-OH)][Dha][Dha]T[NMePhe(4-NO2)][Dhb]G; linker N-C via X1) not met

Please indicate whether the reported IC50 of C=C1NC(=O)[C@@H]2Cc3ccc(O)cc3CN2C(=O)[C@H](CCCNC(=N)N)NC(=O)[C@H](CC(C)C)NC(=O)[C@H](Cc2ccc([N+](=O)[O-])cc2)N(C)C(=O)[C@H](CC(N)=O)NC(=O)[C@H](CC(C)C)NC(=O)[C@H](CCCNC(=N)N)NC(=O)[C@H](CCCC(N)=O)NC(=O)[C@H](C)NC(=O)[C@H](Cc2c[nH]c3ccccc23)NC(=O)c2ccc(-c3nc(C(=O)OC)cs3)nc2-c2csc(n2)C(=C)NC(=O)CNC1=O [hTP13] (WA[Aad](NH2)RLN[NMePhe(4-NO2)]LR[Tic(7-OH)][Dha]G; linker N-C via X1) is strictly below 200 nM. not met
